target: Arginase-2, mitochondrial (Homo sapiens) (UniProt P78540)
Sequence (P78540 whole entry): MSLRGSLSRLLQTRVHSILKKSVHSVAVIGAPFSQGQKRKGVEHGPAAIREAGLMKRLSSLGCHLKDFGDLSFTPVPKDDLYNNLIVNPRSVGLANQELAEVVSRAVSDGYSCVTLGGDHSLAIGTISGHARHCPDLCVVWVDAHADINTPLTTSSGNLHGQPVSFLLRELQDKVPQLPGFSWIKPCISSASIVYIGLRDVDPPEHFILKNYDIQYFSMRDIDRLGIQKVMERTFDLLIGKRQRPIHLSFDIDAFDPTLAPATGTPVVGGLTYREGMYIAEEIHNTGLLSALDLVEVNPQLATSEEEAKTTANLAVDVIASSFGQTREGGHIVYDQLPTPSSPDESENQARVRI
experimental-details: in vitro enzyme assay to detect the production of urea directly proportional to the activity of Arginase II
Type: functional
Set-up: scale not given: in the data most compounds retested in dose-response had high values
applied-conditions: 33.3 µM
A collection of molecules and their measured Percent Effect
Please state the figure in %; there is no need to write the unit.

INSERT INTO measurements (molecule, target, endpoint_value) VALUES
  ('CN1CCN(C(=O)CC2CCN(CCc3ccccn3)CC2)CC1', 'Arginase-2, mitochondrial (Homo sapiens) (UniProt P78540)', 4.84),
  ('Cc1cc(CN2CCN(C(=O)C(C)C)[C@@H]3CS(=O)(=O)C[C@@H]32)ccc1F', 'Arginase-2, mitochondrial (Homo sapiens) (UniProt P78540)', 5.3),
  ('CC(C)(C)N1CC(C(=O)N2CCN(CCn3cccc3)CC2)CC1=O (centres undefined)', 'Arginase-2, mitochondrial (Homo sapiens) (UniProt P78540)', 22.4),
  ('CN(C)C(=O)N1C[C@@H]2CCCO[C@@H]2[C@H](N(C)Cc2ccco2)C1', 'Arginase-2, mitochondrial (Homo sapiens) (UniProt P78540)', -5.99),
  ('CCOc1cccc(C(C)NCc2ccc(OC)c(OC)c2OC)c1 (centres undefined)', 'Arginase-2, mitochondrial (Homo sapiens) (UniProt P78540)', 4.69),
  ('CN(Cc1nc(N)c2ccccc2n1)C1CCCN(c2cccnn2)C1 (centres undefined)', 'Arginase-2, mitochondrial (Homo sapiens) (UniProt P78540)', -1.07),
  ('CN(C)c1cc(C(=O)NCCc2n[nH]c(=O)[nH]2)ccn1', 'Arginase-2, mitochondrial (Homo sapiens) (UniProt P78540)', 4.73),
  ('CCS(=O)(=O)N1CCc2c(CN(C)Cc3ccco3)cncc2C1', 'Arginase-2, mitochondrial (Homo sapiens) (UniProt P78540)', -1.61);

Prompt line: What measured Percent Effect goes with O=C(c1ccc2[nH]ccc2c1)N1CCn2cnc(COCC3CC3)c2C1 ?
Response line: 13.6

Prompt line: What measured Percent Effect goes with Cc1cccc(C)c1OCCNC(=O)NC(C)c1nncn1C (centres undefined) ?
Response line: -2.32

Prompt line: What measured Percent Effect goes with Cn1c2c(ccc1=O)CC(NS(C)(=O)=O)CC2 (centres undefined) ?
Response line: -0.233

---

target: Proteasome subunit beta (Trypanosoma cruzi)
Sequence (whole entry): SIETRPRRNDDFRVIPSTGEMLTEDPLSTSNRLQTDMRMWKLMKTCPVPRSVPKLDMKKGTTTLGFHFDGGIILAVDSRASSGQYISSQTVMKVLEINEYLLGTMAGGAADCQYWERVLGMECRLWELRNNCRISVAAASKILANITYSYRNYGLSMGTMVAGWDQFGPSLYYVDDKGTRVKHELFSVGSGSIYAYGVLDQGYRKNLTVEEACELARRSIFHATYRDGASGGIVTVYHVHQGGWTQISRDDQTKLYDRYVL
experimental-details: Trypanosoma cruzi proteasome chymotrypsin-like activity (TcProtChymo) assay.
Type: functional
Set-up: scale not given: in the data most compounds retested in dose-response had high values
applied-conditions: 9.37 µM
Classes are defined on Percent Effect with ranges lower bin (below 8%), middle bin (8% to below 10%), upper bin (10% or more)

INSERT INTO measurements (compound, cat) VALUES
  ('Cc1nn2c(N3CCC(O)CC3)cc(-c3ccccc3)nc2c1C', 'upper bin'),
  ('Cc1ccoc1C(=O)NCC(Cc1ccc(F)cc1)C(N)=O (centres undefined)', 'upper bin'),
  ('CC(C)Sc1ncccc1C(=O)NCc1ccc(CS(C)(=O)=O)cc1', 'upper bin'),
  ('O=C(c1cccc2c1OCO2)N1CCCC1Cn1cccn1 (centres undefined)', 'lower bin'),
  ('Cc1ccc(-c2nnc(CN3CCc4cnc(C)nc4C3)o2)cc1', 'upper bin'),
  ('FC1(F)CCN(Cc2cccnc2)CC12CCN(c1ccccn1)C2 (centres undefined)', 'upper bin'),
  ('Cc1nc2ccccc2nc1CN(C)CC1CCCN1c1cccnn1 (centres undefined)', 'lower bin'),
  ('CCc1nnc2n1CCN(Cc1csc(-c3ccsc3)n1)C2', 'upper bin');

Prompt line: For the record CCc1cnc(CN(C(C)=O)C2CCN(CCS(C)(=O)=O)C2)o1 (centres undefined) , report the class its Percent Effect corresponds to.
Response line: upper bin

Prompt line: For the record CCNC(=O)CN1CCCN(C(=O)C2CCCc3[nH]ncc32)CC1 (centres undefined) , report the class its Percent Effect corresponds to.
Response line: lower bin
